Each recorded value in this set is attributed to patent US6914045B2.

Please respond with reported MIC Coagulase Negative Staphylococcus (GC 4551) for every item in the list.
system: Staphylococcus sp.; assay: in vitro antibacterial evaluation, MIC by broth dilution; format: cell-based; conditions: broth dilution, 18 hours at 35° C.
One number for each entry, in µg/mL.

CC(c1ccccc1)C1NC(=O)CNC(=O)C(CO)NC(=O)C(C(O)C2CNC(=N)N2C2OC(CO)C(O)C(O)C2O)NC(=O)C(C(O)C2CNC(=N)N2)NC(=O)C(Cc2ccc(OC3OC(CO)C(OC4OC(CO)C(O)C5OC(c6ccccc6)OC45)C(O)C3O)cc2)NC1=O (single isomer, unassigned) [Example 104a]; 32

Item CC(C)C(=O)OCC1OC(OC2C(CO)OC(Oc3ccc(CC4NC(=O)C(Cc5ccccc5)NC(=O)CNC(=O)C(CO)NC(=O)C(C(O)C5CNC(=N)N5C5OC(CO)C(O)C(O)C5O)NC(=O)C(C(O)C5CNC(=N)N5)NC4=O)cc3)C(O)C2O)C(O)C(O)C1O (stereo not drawn) [Example 283a] with Staphylococcus sp. - MIC Coagulase Negative Staphylococcus (GC 4551)?
64

----------
Please respond with reported MIC Enterococcus faecalis (GC 4554) for every item in the list.
test system: Enterococcus sp.; experiment: in vitro antibacterial evaluation, MIC by broth dilution; type: cell-based; conditions: strain GC 4554; broth dilution, 18 hours at 35° C.

Record excerpt, results attached:
CC(c1ccccc1)C1NC(=O)CNC(=O)C(CO)NC(=O)C(C(O)C2CNC(=N)N2C2OC(CO)C(O)C(O)C2O)NC(=O)C(C(O)C2CNC(=N)N2)NC(=O)C(Cc2ccc(OC3OC(CO)C(OC4OC5COC(c6ccc(S(C)(=O)=O)cc6)OC5C(O)C4O)C(O)C3O)cc2)NC1=O (stereo not shown) [Example 157]; >64 µg/mL
CSc1ccc(C2OCC3OC(OC4C(CO)OC(Oc5ccc(CC6NC(=O)C(C(C)c7ccccc7)NC(=O)CNC(=O)C(CO)NC(=O)C(C(O)C7CNC(=N)N7C7OC(CO)C(O)C(O)C7O)NC(=O)C(C(O)C7CNC(=N)N7)NC6=O)cc5)C(O)C4O)C(O)C(O)C3O2)cc1[N+](=O)[O-] (stereo not shown) [Example 168]; 2 µg/mL

Record MIC Enterococcus faecalis (GC 4554) for all entries; do not skip any.
1. CC(c1ccccc1)C1NC(=O)CNC(=O)C(CO)NC(=O)C(C(O)C2CNC(=N)N2C2OC(CO)C(O)C(O)C2O)NC(=O)C(C(O)C2CNC(=N)N2)NC(=O)C(Cc2ccc(OC3OC(CO)C(OC4OC5COC(c6cccc(Cl)c6)OC5C(O)C4O)C(O)C3O)cc2)NC1=O (stereo not shown) [Example 138]
2. CC(c1ccccc1)C1NC(=O)CNC(=O)C(CO)NC(=O)C(C(O)C2CNC(=N)N2C2OC(CO)C(O)C(O)C2O)NC(=O)C(C(O)C2CNC(=N)N2)NC(=O)C(Cc2ccc3oc(SCc4ccc5ccccc5c4)nc3c2)NC1=O (stereo not shown) [Example 46]

8 µg/mL
16 µg/mL

----------
Please respond with reported MIC Enterococcus faecalis (GC 4554) for every item in the list.
tested on: Enterococcus sp.; assay: in vitro antibacterial evaluation, MIC by broth dilution; assay type: cell-based; details: broth dilution, 18 hours at 35° C.
Numbers only, in µg/mL.

Record excerpt, results attached:
CCCCCCCN1CC(C(O)C2NC(=O)C(C(O)C3CNC(=N)N3)NC(=O)C(Cc3ccc(OC4OC(CO)C(OC5OC6COC7(OC6C(O)C5O)C5CC6CC(C5)CC7C6)C(O)C4O)cc3)NC(=O)C(C(C)c3ccccc3)NC(=O)CNC(=O)C(CO)NC2=O)N(C2OC(CO)C(O)C(O)C2O)C1=N (stereo not shown) [Example 83]; 4
CC(C1CCCCC1)C1NC(=O)CNC(=O)C(CO)NC(=O)C(C(O)C2CNC(=N)N2C2OC(CO)C(O)C(O)C2O)NC(=O)C(C(O)C2CNC(=N)N2)NC(=O)C(Cc2ccc(OC3OC(CO)C(OC4OC5COC6(OC5C(O)C4O)C4CC5CC(C4)CC6C5)C(O)C3O)cc2)NC1=O (stereo not shown) [Example 221]; 2
CC(C1CCCCC1)C1NC(=O)CNC(=O)C(CO)NC(=O)C(C(O)C2CNC(=N)N2C2OC(CO)C(O)C(O)C2O)NC(=O)C(C(O)C2CNC(=N)N2)NC(=O)C(Cc2ccc(OC3OC(CO)C(OC4OC5COC(c6ccccc6)OC5C(O)C4O)C(O)C3O)cc2)NC1=O (stereo not shown) [Example 201]; 1
CC(c1ccccc1)C1NC(=O)CNC(=O)C(CO)NC(=O)C(C(O)C2CNC(=N)N2C2OC(CO)C(O)C(O)C2O)NC(=O)C(C(O)C2CNC(=N)N2)NC(=O)C(Cc2ccc(OC3OC(CO)C(OC4OC(CO)C(O)C5OC6(CCCCCCCCCCCC6)OC45)C(O)C3O)cc2)NC1=O (stereo not shown) [Example 210a]; 8
CC(c1ccccc1)C1NC(=O)CNC(=O)C(CO)NC(=O)C(C(O)C2CNC(=N)N2C2OC(CO)C(O)C(O)C2O)NC(=O)C(C(O)C2CNC(=N)N2)NC(=O)C(Cc2ccc(OC3OC(CO)C(OC4OC(COCC=Cc5ccccc5)C(O)C(O)C4O)C(O)C3O)cc2)NC1=O (stereo not shown) [Example 242]; 16

// below: MIC Enterococcus faecalis (GC 4554) requested for another compound
Data request, read-out MIC Enterococcus faecalis (GC 4554), for CC(c1ccccc1)C1NC(=O)CNC(=O)C(CO)NC(=O)C(C(O)C2CNC(=N)N2C2OC(CO)C(O)C(O)C2O)NC(=O)C(C(O)C2CNC(=N)N2)NC(=O)C(Cc2ccc(OC3OC(CO)C(OC4OC(COCc5ccc(OCc6ccccc6)cc5)C(O)C(O)C4O)C(O)C3O)cc2)NC1=O (stereo not shown) [Example 231]
4

----------
system: Streptococcus sp.; assay: in vitro antibacterial evaluation, MIC by broth dilution; type: cell-based; details: broth dilution, inoculum 5×10^5 CFU/mL, 18 hours at 35° C.; strain GC 1894
reportedProperty: MIC Streptococcus pneumoniae (GC 1894) (µg/mL)
Answers are plain numbers, in µg/mL.

CC(c1ccccc1)C1NC(=O)CNC(=O)C(CO)NC(=O)C(C(O)C2CNC(=N)N2C2OC(CO)C(O)C(O)C2O)NC(=O)C(C(O)C2CNC(=N)N2)NC(=O)C(Cc2ccc(OC3OC(CO)C(OC4OC(COCC=Cc5ccccc5)C(O)C(O)C4O)C(O)C3O)cc2)NC1=O (centres unmarked); 0.5

// below: MIC Streptococcus pneumoniae (GC 1894) requested for another compound
Data request, read-out MIC Streptococcus pneumoniae (GC 1894), for COc1ccc(COCC2OC(OC3C(CO)OC(Oc4ccc(CC5NC(=O)C(C(C)c6ccccc6)NC(=O)CNC(=O)C(CO)NC(=O)C(C(O)C6CNC(=N)N6C6OC(CO)C(O)C(O)C6O)NC(=O)C(C(O)C6CNC(=N)N6)NC5=O)cc4)C(O)C3O)C(O)C(O)C2O)cc1 (centres unmarked)
0.5

----------
system: Streptococcus sp.; test: in vitro antibacterial evaluation, MIC by broth dilution; format: cell-based; conditions: broth dilution, 18 hours at 35° C.
reportedProperty: MIC Streptococcus pneumoniae (GC 4565) (µg/mL)
Numbers only, in µg/mL.

Record excerpt, results attached:
CC(c1ccccc1)C1NC(=O)CNC(=O)C(CO)NC(=O)C(C(O)C2CN(Cc3ccc(C(F)(F)F)cc3)C(=N)N2C2OC(CO)C(O)C(O)C2O)NC(=O)C(C(O)C2CNC(=N)N2)NC(=O)C(Cc2ccc(OC3OC(CO)C(OC4OC5COC6(OC5C(O)C4O)C4CC5CC(C4)CC6C5)C(O)C3O)cc2)NC1=O (stereo not drawn); 4
CC(c1ccccc1)C1NC(=O)CNC(=O)C(CO)NC(=O)C(C(O)C2CN(Cc3ccccc3-c3ccccc3)C(=N)N2C2OC(CO)C(O)C(O)C2O)NC(=O)C(C(O)C2CNC(=N)N2)NC(=O)C(Cc2ccc(OC3OC(CO)C(OC4OC(CO)C(O)C(O)C4O)C(O)C3O)cc2)NC1=O (stereo not drawn); 128

Record MIC Streptococcus pneumoniae (GC 4565) for all entries; do not skip any.
1. CC(c1ccccc1)C1NC(=O)CNC(=O)C(CO)NC(=O)C(C(O)C2CNC(=N)N2C2OC(CO)C(O)C(O)C2O)NC(=O)C(C(O)C2CNC(=N)N2)NC(=O)C(Cc2ccc(OC3OC(CO)C(OC4OC(COCC=Cc5ccc(N(C)C)cc5)C(O)C(O)C4O)C(O)C3O)cc2)NC1=O (stereo not drawn)
2. COc1ccc2cc(C3OCC4OC(OC5C(CO)OC(Oc6ccc(CC7NC(=O)C(C(C)c8ccccc8)NC(=O)CNC(=O)C(CO)NC(=O)C(CC8CNC(=N)N8C8OC(CO)C(O)C(O)C8O)NC(=O)C(CC8CNC(=N)N8)NC7=O)cc6)C(O)C5O)C(O)C(O)C4O3)ccc2c1 (stereo not drawn)
3. CC(c1ccccc1)C1NC(=O)CNC(=O)C(CO)NC(=O)C(C(O)C2CNC(=N)N2C2OC(CO)C(O)C3OC(C)(C)OC32)NC(=O)C(C(O)C2CNC(=N)N2)NC(=O)C(Cc2ccc(OC3OC(CO)C(OC4OC5COC(C)(C)OC5C5OC(C)(C)OC45)C4OC(C)(C)OC34)cc2)NC1=O (stereo not drawn) [Example 229b]

16
8
128
